molecular target: Nuclear receptor subfamily 1 group I member 2 (Homo sapiens) (UniProt O75469); test: CYP3A4 induction through human pregnane X receptor (PXR) by small molecules, qHTS assay (AID 1346984); details: DPX-2 HepG2 PXR, CYP3A4-luciferin luminescence, 24 h; series mostly up to 46.1 µM; further: nearly all actives have a fitted effect of over 40% in size
Results filed as inconclusive are left out. Calls of active or inactive are those of the source. The call rests on the fitted dose curve; in most records, active means well fitted activation curve with a large enough effect in the repeat runs; inconclusive means weak or mixed curves; inactive means no such curve, though single readings can be large or run the other way.
Response enum: true (active), false (inactive)

[[record]]
compound = "CO[C@H]1C[C@H](O[C@H]2[C@H](C)[C@@H](O[C@@H]3O[C@H](C)C[C@H](N(C)C)[C@H]3O)[C@@H](C)C[C@]3(CO3)C(=O)[C@H](C)[C@@H](O)[C@@H](C)[C@@H](C)OC(=O)[C@@H]2C)O[C@@H](C)[C@@H]1O"
system_tested = "Nuclear receptor subfamily 1 group I member 2 (Homo sapiens) (UniProt O75469)"
assigned_class = "false"


**Q:** Dear colleague, could you share the recorded outcome for C[S+](C)CCC(N)C(=O)O (stereo not drawn) when you have a moment?
**A:** false

**Q:** # lookup: test call for C=CC1=C(C(=O)O)N2C(=O)[C@@H](NC(=O)/C(=N\O)c3csc(N)n3)[C@H]2SC1 (stereo in doubt)
**A:** false

**Q:** Look up the recorded call for NC(N)=NCc1cccc(I)c1 in this test.
**A:** false

**Q:** What did this assay record as the result for CCC(=O)OC(OP(=O)(CCCCc1ccccc1)CC(=O)N1C[C@H](C2CCCCC2)C[C@H]1C(=O)O)C(C)C (stereo partly drawn) ?
**A:** false

**Q:** Assay outcome for CCCCCCCCCCCCCC(=O)OCC(COP(=O)([O-])OCC[N+](C)(C)C)OC(=O)CCCCCCCCCCCCC (stereo not drawn) : what was it?
**A:** false

**Q:** Kindly provide the recorded test outcome for the following compound: CCN(CC)CC#CCOC(=O)C(O)(c1ccccc1)C1CCCCC1 (stereo not drawn)
**A:** true

**Q:** Short answer needed: outcome of this test for CC(C)=CCC/C(C)=C/CC/C(C)=C/CC/C(C)=C/CC1=C(C)C(=O)c2ccccc2C1=O ?
**A:** false

Reference source for all entries: PubChem BioAssay (Tox21)
